Catalogue of molecules with associated AUC
- experiment description: Mouse blood PK (BALB/c)
- stated conditions: female, BALB/c, mouse, in vivo, po, 5 mg/kg, po AUC^0–6h, BALB/c mice, po 5 mg/kg; 90% CI
Just the number please, in µM·h, no unit attached.

Given the entry CC(C)N1CCN(Cc2ccc3cc(C(=O)Nc4cc(NC(=O)c5ccc6c(c5)OCCO6)ccc4Cl)ccc3n2)CC1 [Compound 18] , report its measured AUC.
2.4

Also CCN1CCN(Cc2ccc3cc(C(=O)Nc4cc(NC(=O)c5ccc6c(c5)OCCO6)ccc4Cl)ccc3n2)CC1 [Compound 21] ?
3.9

Also Cc1ccc(NC(=O)c2ccc3c(c2)OCCO3)cc1NC(=O)c1ccc2nc(CN3CCN(C(C)C)CC3)ccc2c1 [Compound 16] ?
0.43

Also Cc1ccc(NC(=O)c2ccc3c(c2)OCCO3)cc1NC(=O)c1ccc2nc(OCCN3CCCCC3)ccc2c1 [Compound 17] ?
0.83

====

- experiment description: in vitro
- Assay type: in vitro ADME, mouse
- stated conditions: male, CD1, mouse, microsomes, pH 7.4; n = 1, fraction unbound assumed 1; read-out: Microsome Clint, mouse (MLM)
Catalogue of molecules with associated microsomal CLint
Entry format: amount then unit.

Given the entry Cc1ccc(NC(=O)c2ccc3c(c2)OCCO3)cc1NC(=O)c1ccc2nc(CN3CCN(C(C)C)CC3)ccc2c1 [Compound 16] , report its measured microsomal CLint.
10 µL/min/mg

Also Cc1ccc(NC(=O)c2ccc3c(c2)OCCO3)cc1NC(=O)c1ccc2nc(CN3CCCC3)ccc2c1 [Compound 11] ?
21 µL/min/mg

We now examine a further molecule.
Given the entry Cc1ccc(NC(=O)c2ccc3c(c2)OCCO3)cc1NC(=O)c1ccc2nc(CN3CCN(C)CC3)ccc2c1 [Compound 15] , report its measured microsomal CLint.
21 µL/min/mg

====

- experiment description: in vitro
- stated conditions: human, Caco-2, pH 7.4, Recovery, A2B, geometric mean row
quantity: recovery (%)
Just the number please, in %, no unit attached.

Given the entry Cc1ccc(NC(=O)c2ccc3c(c2)OCCO3)cc1NC(=O)c1ccc2nc(OCCN3CCCC3)ccc2c1 [Compound 1] , report its measured recovery.
90

====

- experiment description: Mouse blood PK (BALB/c)
- stated conditions: female, BALB/c, mouse, in vivo, po, 5 mg/kg
quantity: Tmax at 24 h

Known results for compounds:
Given the entry Cc1ccc(NC(=O)c2ccc3c(c2)OCCO3)cc1NC(=O)c1ccc2nc(OCCN3CCCCC3)ccc2c1 [Compound 17] , report its measured Tmax at 24 h.
2.3 h

Also CC(C)N1CCN(Cc2ccc3cc(C(=O)Nc4cc(NC(=O)c5ccc6c(c5)OCCO6)ccc4Cl)ccc3n2)CC1 [Compound 18] ?
1.7 h

Also CCN1CCN(Cc2ccc3cc(C(=O)Nc4cc(NC(=O)c5ccc6c(c5)OCCO6)ccc4Cl)ccc3n2)CC1 [Compound 21] ?
1.7 h

We now examine a further compound.
Given the entry Cc1ccc(NC(=O)c2ccc3c(c2)OCCO3)cc1NC(=O)c1ccc2nc(CN3CCN(C(C)C)CC3)ccc2c1 [Compound 16] , report its measured Tmax at 24 h.
1.7 h

====

- experiment description: Mouse blood PK (BALB/c)
- stated conditions: female, BALB/c, mouse, in vivo, po, 5 mg/kg
Catalogue of molecules with associated Cmax
Just the number please, in nM, no unit attached.

Known results for molecules:
Given the entry CCN1CCN(Cc2ccc3cc(C(=O)Nc4cc(NC(=O)c5ccc6c(c5)OCCO6)ccc4Cl)ccc3n2)CC1 , report its measured Cmax.
880

Also Cc1ccc(NC(=O)c2ccc3c(c2)OCCO3)cc1NC(=O)c1ccc2nc(CN3CCN(C(C)C)CC3)ccc2c1 ?
130

We now examine a further molecule.
Given the entry CC(C)N1CCN(Cc2ccc3cc(C(=O)Nc4cc(NC(=O)c5ccc6c(c5)OCCO6)ccc4Cl)ccc3n2)CC1 , report its measured Cmax.
550

====

- experiment description: Rat blood PK (Sprague-Dawley)
- Format: in vivo
- stated conditions: female, Sprague-Dawley, rat, whole blood, po, 5 mg/kg, SD rats, po, t = 24 h; read-out: po AUC^0–t
quantity: AUC (µM·h)
Just the number please, in µM·h, no unit attached.

Given the entry Cc1ccc(NC(=O)c2ccc3c(c2)OCCO3)cc1NC(=O)c1ccc2nc(OCCN3CCCC3)ccc2c1 , report its measured AUC.
0.84

====

- experiment description: in vitro
- Format: in vitro ADME
- stated conditions: male, Sprague Dawley, rat, microsomes, pH 7.4; n = 1, fraction unbound assumed 1; read-out: Microsome Clint, rat (RLM)
Catalogue of compounds with associated microsomal CLint at 0.75 h, 1 µM

Given the entry Cc1ccc(NC(=O)c2ccc3c(c2)OCCO3)cc1NC(=O)c1ccc2nc(CN3CCN(C(C)C)CC3)ccc2c1 , report its measured microsomal CLint at 0.75 h, 1 µM.
7 µL/min/mg

We now examine a further compound.
Given the entry Cc1ccc(NC(=O)c2ccc3c(c2)OCCO3)cc1NC(=O)c1ccc2nc(CN3CCCC3)ccc2c1 , report its measured microsomal CLint at 0.75 h, 1 µM.
20 µL/min/mg

====

- experiment description: in vitro
- stated conditions: human, Caco-2, pH 7.4, Recovery, A2B + LY335979, geometric mean row
quantity: recovery (%)
Just the number please, in %, no unit attached.

Given the entry Cc1ccc(NC(=O)c2ccc3c(c2)OCCO3)cc1NC(=O)c1ccc2nc(OCCN3CCCC3)ccc2c1 [Compound 1] , report its measured recovery.
50

====

- experiment description: Rat blood PK (Sprague-Dawley)
- Assay type: in vivo
- stated conditions: female, Sprague-Dawley (CD), rat, whole blood, po, 5 mg/kg; SD rats
quantity: bioavailability at 24 h

Given the entry Cc1ccc(NC(=O)c2ccc3c(c2)OCCO3)cc1NC(=O)c1ccc2nc(OCCN3CCCC3)ccc2c1 [Compound 1] , report its measured bioavailability at 24 h.
11%

====

- experiment description: in vitro
- stated conditions: human, Caco-2, pH 7.4, Recovery, B2A + LY335979, geometric mean row
quantity: recovery
Entry format: amount then unit.

Given the entry Cc1ccc(NC(=O)c2ccc3c(c2)OCCO3)cc1NC(=O)c1ccc2nc(OCCN3CCCC3)ccc2c1 , report its measured recovery.
100%

====

Catalogue of compounds with associated Free Cav^0–24h
- experiment description: Mouse blood PK (BALB/c)
- stated conditions: BALB/c mice, po; AUC^inf/24*fub
Just the number please, in nM, no unit attached.

Known results for compounds:
Given the entry Cc1ccc(NC(=O)c2ccc3c(c2)OCCO3)cc1NC(=O)c1ccc2nc(OCCN3CCCCC3)ccc2c1 , report its measured Free Cav^0–24h.
0.83

Also CCN1CCN(Cc2ccc3cc(C(=O)Nc4cc(NC(=O)c5ccc6c(c5)OCCO6)ccc4Cl)ccc3n2)CC1 ?
1.3

Also Cc1ccc(NC(=O)c2ccc3c(c2)OCCO3)cc1NC(=O)c1ccc2nc(CN3CCN(C(C)C)CC3)ccc2c1 ?
0.66

Next:
Given the entry CC(C)N1CCN(Cc2ccc3cc(C(=O)Nc4cc(NC(=O)c5ccc6c(c5)OCCO6)ccc4Cl)ccc3n2)CC1 , report its measured Free Cav^0–24h.
1.6

====

- experiment description: physchem
- stated conditions: pH 7.4
Would you please tag the item satisfied when its chromatographic logD is 2 or above, and not satisfied when it is below?

See these solved cases before continuing.
Has Cc1ccc(NC(=O)c2ccc3c(c2)OCCO3)cc1NC(=O)c1ccc2nc(CN(C)C)ccc2c1 a recorded chromatographic logD greater than or equal to 2?
not satisfied

Also Cc1ccc(NC(=O)c2ccc3c(c2)OCCO3)cc1NC(=O)c1ccc2nc(CN3CCN(C)CC3)ccc2c1 ?
not satisfied

Next:
Has CC(C)N1CCN(Cc2ccc3cc(C(=O)Nc4cc(NC(=O)c5ccc6c(c5)OCCO6)ccc4Cl)ccc3n2)CC1 a recorded chromatographic logD greater than or equal to 2?
satisfied

Also Cc1ccc(NC(=O)c2ccc3c(c2)OCCO3)cc1NC(=O)c1ccc2nc(CN3CCCC3)ccc2c1 ?
not satisfied

Also Cc1ccc(NC(=O)c2ccc3c(c2)OCCO3)cc1NC(=O)c1ccc2nc(CN3CCCC3C)ccc2c1 (racemic) ?
satisfied

Also Cc1ccc(NC(=O)c2ccc3c(c2)OCCO3)cc1NC(=O)c1ccc2nc(CN3CCN(C(C)C)CC3)ccc2c1 ?
not satisfied

Also CN1CCN(Cc2ccc3cc(C(=O)Nc4cc(NC(=O)c5ccc6c(c5)OCCO6)ccc4Cl)ccc3n2)CC1 ?
satisfied

Also CCN1CCN(Cc2ccc3cc(C(=O)Nc4cc(NC(=O)c5ccc6c(c5)OCCO6)ccc4Cl)ccc3n2)CC1 ?
satisfied

====

Catalogue of compounds with associated Plasma, fup
- experiment description: Plasma protein binding and blood-to-plasma ratio
- stated conditions: BALB/c mouse; 90% CI

Given the entry Cc1ccc(NC(=O)c2ccc3c(c2)OCCO3)cc1NC(=O)c1ccc2nc(OCCN3CCCC3)ccc2c1 , report its measured Plasma, fup.
0.010

Also CC(C)N1CCN(Cc2ccc3cc(C(=O)Nc4cc(NC(=O)c5ccc6c(c5)OCCO6)ccc4Cl)ccc3n2)CC1 ?
0.012 (0.014-0.010)
